Test: qHTS for Inhibitors of the Functional Ribonucleoprotein Complex (vRNP) of Lassa (LASV) Arenavirus: Viability assay - alamar blue signal for LASV Primary Screen (AID 1347083); note: nearly all actives have a fitted effect of over 80% in size
Details: cell viability, alamar blue fluorescence (LASV minigenome counter-screen); series mostly up to 57.5 µM
Inconclusive results are not listed. Activity calls are given as the source filed them. Calls come from the whole dose curve; tested in HEK293 reporter line.
Labels: active, inactive

CCN1CCN(C(=O)N[C@H](C(=O)N[C@@H]2C(=O)N3C(C(=O)O)=C(CSc4nnnn4C)CS[C@@H]23)c2ccc(O)cc2)C(=O)C1=O; inactive
COc1ccc(C[C@@H](C)[C@@H](C)Cc2ccc(OC)c(OC)c2)cc1OC; active
Nc1ccn([C@@H]2O[C@H](CO)[C@H](O)C2(F)F)c(=O)n1; active
CC(C)NC[C@@H](C(=O)N1CCN(c2ncnc3c2[C@H](C)C[C@H]3O)CC1)c1ccc(Cl)cc1; active
CCCc1ccc(OC)cc1; inactive
CC(C)(C)Cn1c(N)nc2ccc(-c3[nH]c(C(C)(C)C)nc3-c3ccc(F)cc3)nc21; inactive
CO/N=C(\C(=O)N[C@@H]1C(=O)N2C(C(=O)O)=C(CSc3nc(=O)c(O)nn3C)CSC12)c1csc(N)n1 (stereo not given in full); inactive
CCCCOc1c(C(=O)c2c(F)cc(C)cc2F)cnc2n[nH]cc12; active
COc1ccc(CC2c3cc(OC)c(OC)cc3CCN2C)cc1O (stereo not given); inactive
COC(=O)N1CCN(Cc2cccc(NC(=O)Nc3ccc(C)nc3)c2F)CC1; inactive
COC(=O)C1=CO[C@@H](C)[C@@H]2CN3CC[C@]4(C(=O)Nc5c4ccc(OC)c5OC)[C@H]3C[C@H]12; inactive
CC1=C(O)C(=O)CO1; inactive
CC(C)NC[C@H](O)COc1ccc(CC(N)=O)cc1; inactive
COc1ccc2c(c1)c(CC(=O)O)c(C)n2Cc1ccc(Cl)cc1; inactive
NC(=S)c1ccc[n+]([C@@H]2O[C@@H](COP(=O)([O-])OP(=O)(O)OC[C@H]3O[C@@H](n4cnc5c(N)ncnc54)[C@H](OP(=O)(O)O)[C@@H]3O)C(O)C2O)c1 (stereo not given in full); inactive
Cc1ccc(-c2ccccc2)cc1; inactive
CCS(=O)(=O)Nc1ccc2[nH]c(O)c(C(=Nc3ccc(CN4CCCCC4)cc3)c3ccccc3)c2c1; active
C=CC(=O)CCCCC; inactive
CCCCCCCCCCCCCC(=O)OCC(O)CO (stereo not given); inactive
C/C=C(\C)C(=O)O[C@H](c1cc2ccc(=O)oc2cc1OC)[C@@H](O)C(C)(C)O; inactive
